B1: HDV Ribozyme (parent)
chain: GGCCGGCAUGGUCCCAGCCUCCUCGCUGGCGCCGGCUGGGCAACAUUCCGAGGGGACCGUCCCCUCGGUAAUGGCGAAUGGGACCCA

variants of: B1; experiment: self-cleavage, relative activity (ratio to wild type); higher = more cleavage; co-transcriptional
Field: class. Source value: self-cleavage. Ranges: group A = under 0.2, group B = from 0.2 up to 0.8, group C = 0.8 and over

In plain terms, what class is C49U G81C ?
group B

In plain terms, what class is A43G C62A ?
group B

In plain terms, what class is U23C A78G ?
group B

In plain terms, what class is G50C A71U ?
group B

In plain terms, what class is U12A G35C ?
group A

The values you see were collected from the RNAGym collection of RNA variant scans (doi:10.7554/elife.80360).
